target: Cdk9/cyclinT1 (Homo sapiens, UniProt P50750); assay: Cdk9/cyclinT1 Alpha Screen protocol; type: biochemical; design: Full length wild type Cdk9/cyclin T1 is purchased from Invitrogen; purchased Invitrogen PV4131; settings: neutral species; individual determinations; read-out: CDK9_cyclinT1_AS2_IC50
Sequence (P50750 whole entry): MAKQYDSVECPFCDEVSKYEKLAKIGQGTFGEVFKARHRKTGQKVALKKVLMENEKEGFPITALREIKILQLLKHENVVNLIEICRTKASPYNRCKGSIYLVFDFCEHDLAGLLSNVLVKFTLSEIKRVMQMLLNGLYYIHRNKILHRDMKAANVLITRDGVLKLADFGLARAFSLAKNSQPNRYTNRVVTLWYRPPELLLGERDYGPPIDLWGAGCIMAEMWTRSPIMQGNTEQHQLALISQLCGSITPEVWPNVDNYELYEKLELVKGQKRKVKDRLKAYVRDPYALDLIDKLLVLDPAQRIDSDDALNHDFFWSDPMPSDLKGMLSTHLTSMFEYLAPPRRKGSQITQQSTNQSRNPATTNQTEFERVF
Sequence (O60563 whole entry partner): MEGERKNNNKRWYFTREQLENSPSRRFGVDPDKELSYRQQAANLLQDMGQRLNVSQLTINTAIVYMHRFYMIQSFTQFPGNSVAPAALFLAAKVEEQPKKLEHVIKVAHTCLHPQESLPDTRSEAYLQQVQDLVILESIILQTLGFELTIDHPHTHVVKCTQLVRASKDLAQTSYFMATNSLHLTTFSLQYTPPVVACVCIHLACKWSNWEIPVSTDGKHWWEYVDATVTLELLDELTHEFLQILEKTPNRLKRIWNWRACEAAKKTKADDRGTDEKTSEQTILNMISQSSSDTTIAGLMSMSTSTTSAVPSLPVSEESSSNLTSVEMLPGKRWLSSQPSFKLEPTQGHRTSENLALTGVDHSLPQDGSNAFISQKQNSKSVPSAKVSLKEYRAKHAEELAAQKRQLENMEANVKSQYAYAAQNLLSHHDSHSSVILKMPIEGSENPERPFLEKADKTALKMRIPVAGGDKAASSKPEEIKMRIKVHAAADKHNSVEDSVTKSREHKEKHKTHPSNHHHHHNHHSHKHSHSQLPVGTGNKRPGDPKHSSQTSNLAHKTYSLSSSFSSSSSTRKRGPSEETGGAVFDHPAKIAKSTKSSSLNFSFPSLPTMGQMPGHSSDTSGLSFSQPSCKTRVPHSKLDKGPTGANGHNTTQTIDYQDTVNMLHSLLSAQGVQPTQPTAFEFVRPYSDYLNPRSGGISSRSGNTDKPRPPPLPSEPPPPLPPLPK
readout kind: IC50 (nM)

C[C@H](CO)N[C@H]1CC[C@H](Nc2cc(-c3cncc(OCC4(C#N)CCOCC4)n3)c(Cl)cn2)CC1 [Compound 590]; 5

(a) COCC(C)N[C@H]1CC[C@@H](Nc2cc(-c3cccc(NCC4(C#N)CCOCC4)n3)c(Cl)cn2)CC1 (stereo partly shown) [Compound 603]
(b) N#CC1(CNc2cccc(-c3cc(N[C@H]4CC[C@H](CN5CCOCC5)CC4)ncc3Cl)n2)CCOCC1 [Compound 536]
Which value of IC50 is smaller, the one for a or the one for b ? Bench note: the answer is the label of the chosen record.
b
(b: 2.11 nM, a: 5.6 nM)

---

biological target: Cdk9/cyclinT1 (Homo sapiens); experiment: Cdk9/cyclinT1 IMAP protocol (fluorescence polarization); settings: IC-50, CDK9; lower limit of assay 0.0005 micromolar
readout kind: IC50 (pM)

(1) COC[C@]1(O)CC[C@H](Nc2cc(-c3cccc(NCC4(C#N)CCOCC4)n3)c(Cl)cn2)CC1 [Compound 449]
(2) N#CC1(CNc2cccc(-c3cc(N[C@H]4CC[C@@H](N)CC4)ncc3Cl)n2)CCOCC1 [Compound 465]
(3) N#CC1(CNc2cccc(-c3cc(N[C@H]4CC[C@H](NCCC(F)(F)F)CC4)ncc3Cl)n2)CCOCC1 [Compound 433]
List the compounds shown above again, sorted by falling IC50 values. Provide the labels, sequenced as the question asks.
1, 2, 3

---

biological target: Cdk9/cyclinT1 (Homo sapiens, UniProt P50750); assay: Cdk9/cyclinT1 Alpha Screen protocol; type: biochemical; set-up: Full length wild type Cdk9/cyclin T1 is purchased from Invitrogen; purchased Invitrogen PV4131; conditions: neutral species; individual determinations; read-out: CDK9_cyclinT1_AS2_IC50
readout kind: IC50 (nM)

N#CC1(CNc2cccc(-c3cc(N[C@H]4CC[C@H](NC5CC(F)(F)C5)CC4)ncc3Cl)n2)CCOCC1; 0.416

(A) COC[C@@H](C)N[C@H]1CC[C@H](Nc2cc(-c3cnc(Cl)c(NCC4(C#N)CCOCC4)n3)c(Cl)cn2)CC1
(B) COCCN(C1CC1)[C@H]1CC[C@H](Nc2cc(-c3cncc(OCC4(C#N)CCOCC4)n3)c(F)cn2)CC1
(C) N#CC1(CNc2cccc(-c3cc(N[C@H]4CC[C@@H](N5CCn6c(nnc6C(F)(F)F)C5)CC4)ncc3Cl)n2)CCOCC1
(D) COCC(C)NC[C@H]1CC[C@H](Nc2cc(-c3cccc(NCC4(C#N)CCOCC4)n3)c(Cl)cn2)CC1 (stereo partly shown)
(E) N#CC1(CNc2cccc(-c3cc(N[C@H]4CC[C@@H](N5CC6(COC6)C5)CC4)ncc3Cl)n2)CCOCC1
Put the compounds in ascending order of IC50. Response format: the labels, sorted as the prompt asks.
D, B, E, C, A

---

target: Cdk9/cyclinT1 (Homo sapiens, UniProt P50750); assay: Cdk9/cyclinT1 Alpha Screen protocol; type: biochemical; design: Full length wild type Cdk9/cyclin T1 is purchased from Invitrogen; purchased Invitrogen PV4131; conditions: neutral species; individual determinations; read-out: CDK9_cyclinT1_AS2_IC50
pIC50: −log10 of the molar value.
readout kind: pIC50

N#CC1(CNc2cccc(-c3cc(N[C@H]4CC[C@H](NCCCO)CC4)ncc3Cl)n2)CCOCC1 [Compound 571]; 9.40

(A) CO[C@H]1CCN([C@H]2CC[C@H](Nc3cc(-c4cccc(NCC5(C#N)CCOCC5)n4)c(Cl)cn3)CC2)C1 [Compound 514]
(B) COC[C@@H](C)N[C@H]1CC[C@@H](Nc2cc(-c3cccc(NCC4(C#N)CCOCC4)n3)c(Cl)cn2)CC1 [Compound 601]
API: POST /compare with A and B ; response names the item with higher pIC50. Reply briefly: the label of your chosen item.
A
